The measured values listed here are drawn from patent US20230357429A1.

Biological target: T1, TBD-21 (HC F108A)
T1 construct: Fab; also called HC F108A mutant
T1 sequence (VH, as listed by the source, chain 1 of 2): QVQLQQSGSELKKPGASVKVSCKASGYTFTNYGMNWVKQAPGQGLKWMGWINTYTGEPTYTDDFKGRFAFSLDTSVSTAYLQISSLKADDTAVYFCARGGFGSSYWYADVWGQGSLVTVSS
T1 sequence (VL, as listed by the source, chain 2 of 2): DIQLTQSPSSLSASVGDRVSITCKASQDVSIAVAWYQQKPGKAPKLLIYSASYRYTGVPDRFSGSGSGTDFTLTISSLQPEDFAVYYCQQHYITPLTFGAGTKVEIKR
Test: competition ELISA, peptide vs Fab binding to captured biotin-TROP2
pIC50: −log10 of the molar value. Where no end group is shown, it is not given here.
Endpoint: pIC50

Answered examples (3):
{"Binder": "MDFCQIYDWPICRL (cysteine pairing not given here; also: biotinylated (site not given here)) [Peptide-18]", "Numeric value": 5.12}
{"Binder": "SYLVCVKNVYCWTA (cysteine pairing not given here; also: biotinylated, site not given here) [Peptide-29]", "Numeric value": 5.83}
{"Binder": "VDFCELYRWPICNS (cysteine pairing not given here; also: biotinylated (site not given here)) [Peptide-13]", "Numeric value": 5.49}

A. PDFCAVYRWPICYQ (cysteine pairing not given here; also: biotinylated (site not given here)) [Peptide-12]
B. LDFCKIYDWPICHL (cysteine pairing not given here; also: biotinylated (site not given here)) [Peptide-14]
Q: Just curious, which one has the larger pIC50 reading, A or B ? Returns: label corresponding to the selected item.
Ans: A
